assay: Solubility of raw material (Table 1); type: physicochemical; details: in water; read-out: Solubility in Water
Assay metric: solubility

-- ask // returns reported solubility for input O=C(CCCCCCC(=O)Nc1ccccc1)NO [Suberoylanilide hydroxamic acid (SAHA), N-hydroxy-N′-phenyloctanediamide]
-- reply < 100 µg/mL

----------
Test: Solubility of raw material (Table 1)
Assay type: physicochemical
Details: 2% SD-20 aqueous solution, aqueous with cosolvent or surfactant or cyclodextrin; 2% SD-20 aqueous soln.; read-out: Solubility in 2% SD-20 aqueous soln.
Text: Table 1 summarizes the physical properties of the raw materials in the capsule.
Assay metric: solubility (µg/mL)
All answers are understood in µg/mL, so give the number only.

-- ask Request the reported solubility associated with O=C(CCCCCCC(=O)Nc1ccccc1)NO [Suberoylanilide hydroxamic acid (SAHA), N-hydroxy-N′-phenyloctanediamide]
-- reply 85

The measurements presented in this section are drawn from patent US20120142770A1.
